assay: melting temperature; melt of duplexes; conditions: sodium 0.0675 M; strand 1 µM
Is Tm at least 50 °C? Then y. If not, n.

INSERT INTO measurements (substance, discrete_label) VALUES
  ('CGACGTGCGCCATGTGCTG+CAGCACATTAGGCACGTCG ((((((((...((((((((+))))))))...))))))))', 'n');

Query: Answer whether Tm of CGACGTGCTTCATGTGCTG+CAGCACATAGCGCACGTCG ((((((((...((((((((+))))))))...)))))))) is greater than or equal to 50 °C.
Response: n

Query: Answer whether Tm of CGACGTGCATAATGTGCTG+CAGCACATCAAGCACGTCG ((((((((.(.((((((((+)))))))).).)))))))) is greater than or equal to 50 °C.
Response: n

Query: Answer whether Tm of CGACGTGCTTTATGTGCTG+CAGCACATAGCGCACGTCG ((((((((..(((((((((+)))))))))..)))))))) is greater than or equal to 50 °C.
Response: n

Query: Answer whether Tm of CGACGTGCTTTATGTGCTG+CAGCACATGCCGCACGTCG ((((((((...((((((((+))))))))...)))))))) is greater than or equal to 50 °C.
Response: n

Query: Answer whether Tm of CGACGTGCTTGATGTGCTG+CAGCACATTGCGCACGTCG ((((((((...((((((((+))))))))...)))))))) is greater than or equal to 50 °C.
Response: n

Query: Answer whether Tm of CGACGTGCGAAATGTGCTG+CAGCACATGAGGCACGTCG ((((((((...((((((((+))))))))...)))))))) is greater than or equal to 50 °C.
Response: y

Query: Answer whether Tm of CGACGTGCCACATGTGCTG+CAGCACATCTTGCACGTCG ((((((((.(.((((((((+)))))))).).)))))))) is greater than or equal to 50 °C.
Response: n

Query: Answer whether Tm of CGACGTGCGAAATGTGCTG+CAGCACATCCCGCACGTCG (((((((((..((((((((+))))))))..))))))))) is greater than or equal to 50 °C.
Response: y

Query: Answer whether Tm of CGACGTGCCTTATGTGCTG+CAGCACATTTGGCACGTCG (((((((((..((((((((+))))))))..))))))))) is greater than or equal to 50 °C.
Response: y

Query: Answer whether Tm of CGACGTGCCGTATGTGCTG+CAGCACATTTAGCACGTCG ((((((((...((((((((+))))))))...)))))))) is greater than or equal to 50 °C.
Response: n

Query: Answer whether Tm of CGACGTGCTATATGTGCTG+CAGCACATGGTGCACGTCG ((((((((...((((((((+))))))))...)))))))) is greater than or equal to 50 °C.
Response: n

Query: Answer whether Tm of CGACGTGCTCGATGTGCTG+CAGCACATGACGCACGTCG ((((((((...((((((((+))))))))...)))))))) is greater than or equal to 50 °C.
Response: n

Query: Answer whether Tm of CGACGTGCACTATGTGCTG+CAGCACATTAGGCACGTCG ((((((((...((((((((+))))))))...)))))))) is greater than or equal to 50 °C.
Response: n

Query: Answer whether Tm of CGACGTGCAGAATGTGCTG+CAGCACATCCGGCACGTCG ((((((((.(.((((((((+)))))))).).)))))))) is greater than or equal to 50 °C.
Response: y
